Taken from PubChem BioAssay (NCATS).

- test_protocol: Quantitative High-Throughput drug screen in 47 multiple myeloma cell lines against the NCATS MIPE library collection: KMS28BM_JCRB cell viability assay (AID 1919874); further: nearly all actives have a fitted effect of over 35% in size
- conditions: CellTiter-Glo ATP, 48 h; series mostly up to 45.8 µM
Records with an inconclusive call do not appear. Activity calls are given as the source filed them. The call rests on the fitted dose curve; in most records, active means well fitted cell-killing curve with a large enough effect; inconclusive means small, poorly fitted or top-dose-only effect, or effect the other way; inactive means no such curve, though single readings can be large or run the other way.
Outcome (select one): active, inactive

Record excerpt, results attached:
# molecule, class_assignment
data = [
    ("Nc1ncnc2ccccc12", "inactive"),
    ("CN1[C@@H]2CCC[C@@H]1CC(NC(=O)c1nn(C)c3ccccc13)C2 (stereo partly specified)", "inactive"),
    ("O=C(Nc1ccccc1Br)N[C@@H]1CCN(c2ccc(C(F)(F)F)cn2)C1", "active"),
    ("Cc1ccc(F)c(NC(=O)Nc2ccc(-c3cccc4[nH]nc(N)c34)cc2)c1", "active"),
    ("CC(C(=O)O)c1ccc(-c2ccccc2)c(F)c1 (stereo unspecified)", "active"),
]

What classification did "CC(=NNC(=S)N1CCC1)c1ccccn1" end up with in this test?
active

Hi, do you know how C=C1C(=O)OC2C=C(C)CCC=C(C)CCC12 (stereo unspecified) came out in this test?
active

Tell me the recorded outcome of this test for NC1CCC(Nc2nc(Nc3ccc(C(=O)N4CCCCC4)cc3)c3ncn(-c4cccc(F)c4)c3n2)CC1 (stereo unspecified) .
inactive

Assay outcome for "CC[C@H]1OC(=O)[C@H](C)[C@@H](O[C@H]2C[C@@](C)(OC)[C@@H](O)[C@H](C)O2)[C@H](C)[C@@H](O[C@@H]2O[C@H](C)C[C@H](N(C)C)[C@@H]2O)[C@](C)(O)C[C@@H](C)CN(C)[C@H](C)[C@@H](O)[C@]1(C)O" : what was it?
inactive

In this assay, the call recorded for "C[C@H](NC(=O)C(=O)Nc1ccccc1C(C)(C)C)C(=O)N[C@@H](CC(=O)O)C(=O)COc1c(F)c(F)cc(F)c1F" was what?
inactive

Which outcome was entered for the molecule CCOC(=O)C1=C(N)Oc2ccc(Br)cc2C1C(C#N)C(=O)OCC (stereo unspecified) in this test?
active

# lookup: test call for "CC=CC(=O)N(CC)c1ccccc1C"
inactive

Fill in: this test's call for "Clc1ccc(-c2nc3sccn3c2C=NOCc2ccc(Cl)c(Cl)c2)cc1" is ___
inactive

Short answer needed: outcome of this test for CCOC1OC(=O)C[C@H]1NC(=O)[C@@H]1CCCN1C(=O)[C@@H](NC(=O)c1ccc(N)c(Cl)c1)C(C)(C)C (stereo partly specified) ?
inactive

Identify the outcome logged in this assay for the molecule shown: "COc1cc(Nc2ncc(F)c(Nc3ccc4c(n3)NC(=O)C(C)(C)O4)n2)cc(OC)c1OC"
inactive

For this molecule, state the assay outcome: COC1CCC(N(C(=O)C2CCC(C)CC2)c2cc(C3=CCCCC3)sc2C(=O)O)CC1 (stereo unspecified)
inactive

----------
- test_protocol: Quantitative High-Throughput drug screen in 47 multiple myeloma cell lines against the NCATS MIPE library collection: KMM1_JCRB cell viability assay (AID 1918960); further: nearly all actives have a fitted effect of over 30% in size
- conditions: KMM1 myeloma viability, CellTiter-Glo ATP luminescence, 48 h; series mostly up to 45.8 µM
Records with an inconclusive call do not appear. Calls of active or inactive are those of the source. Calls follow the shape of the dose curve; as a rule, active = well fitted cell-killing curve with a large enough effect; inconclusive = small, poorly fitted or top-dose-only effect, or effect the other way; inactive = no such curve, though single readings can be large or run the other way.
Respond only with the outcome that fits, drawn from active, inactive

See these solved cases before continuing.
# compound, class_assignment
data = [
    ("Cc1ccc(C(=O)Nc2cccc(C(F)(F)F)c2)cc1Nc1nc(-c2cccnc2)nc2c1cnn2C", "inactive"),
    ("N#CC(=C(N)Sc1ccccc1N)C(C#N)=C(N)Sc1ccccc1N", "active"),
    ("COc1cccc(-c2cc(=O)c3ccccc3o2)c1N", "inactive"),
    ("COc1ccc(C2Sc3ccccc3N(CCN(C)C)C(=O)C2OC(C)=O)cc1 (configuration not stated)", "inactive"),
    ("COc1ccc2cc(-c3nc(-c4ccc(S(C)=O)cc4)[nH]c3-c3ccncc3)ccc2c1 (configuration not stated)", "active"),
]

Hey, what did the test say about CCOC(=O)C1=C(N)Oc2ccc(Br)cc2C1C(C#N)C(=O)OCC (configuration not stated) ?
active

Just curious, what result did "CC(C)(C)c1cc(C(=O)O)c(NC(=O)Nc2ccc3[nH]ncc3c2)s1" get here?
inactive

Please let me know the test result on file for "C[C@@H]1CCN(C(=O)CC#N)C[C@H]1N(C)c1ncnc2[nH]ccc12" .
inactive

Called result for "Cc1cnc(C(=O)O)c[n+]1[O-]"
inactive

What did the test return for "CNC(=O)c1ccccc1Sc1ccc2c(C=Cc3ccccn3)n[nH]c2c1" ?
active

GET /call?item= "Cc1ccc(F)c(NC(=O)Nc2ccc(-c3cccc4[nH]nc(N)c34)cc2)c1" returns the recorded outcome of this test.
active

Answer briefly: the call reported for Cc1ccccc1C(C(=O)NC1CCCCC1)N(C(=O)Cn1ccnc1C)c1cccc(F)c1 (configuration not stated) in this assay.
inactive

Please let me know the test result on file for "Cc1ccc([C@@H]2O[C@H](CO)[C@@H](O)[C@H](O)[C@@H]2O)cc1Cc1ccc(-c2ccc(F)cc2)s1" .
active

Given "CO[C@H]1C=CO[C@@]2(C)Oc3c(C)c(O)c4c(O)c(c5c(c4c3C2=O)NC2(CCN(CC(C)C)CC2)N=5)=NC(=O)C(C)=CC=C[C@H](C)[C@H](O)[C@@H](C)[C@@H](O)[C@@H](C)[C@H](OC(C)=O)[C@H]1C" , state the outcome it received in this test.
inactive

# outcome recorded in this test, key = "O=C(Nc1c(Cl)cncc1Cl)c1ccc(OC(F)F)c(OCC2CC2)c1"
inactive

Which outcome was entered for the compound "O=C(CCCCCCC(=O)Nc1ccccc1)NO" in this test?
active

# lookup: test call for "CC(C)(C)Cn1c(N)nc2ccc(-c3[nH]c(C(C)(C)C)nc3-c3ccc(F)cc3)nc21"
inactive

Test call, this compound: "Cc1[nH]c(C=C2C(=O)Nc3ccc(S(=O)(=O)Cc4c(Cl)cccc4Cl)cc32)c(C)c1C(=O)N1CCC[C@H]1CN1CCCC1"
active

Fill in: this test's call for "NS(=O)(=O)c1cccc2c1C(=O)c1cccc(O)c1C2=O" is ___
active

Assay result, entry Cc1ccc(C(C)(O)c2nc3ccccc3s2)c(C)c1 (configuration not stated) — outcome?
inactive

Recorded call for "N#C[C@H]1C[C@H]2C[C@@H]2N1C(=O)[C@@H](N)C12CC3CC(CC(O)(C3)C1)C2" ?
inactive

// return assay outcome for "O=C(Nc1ccccc1Br)N[C@@H]1CCN(c2ccc(C(F)(F)F)cn2)C1"
inactive

Outcome logged for "O=C(OCC#CCSc1nnc(-c2cccc3ccccc23)o1)c1cc2ccccc2s1" in this assay:
inactive

Called result for "Nc1ncnc2c1ncn2[C@@H]1O[C@H](CO)C[C@@H]1O"
inactive

Dear colleague, could you share the recorded outcome for "Cc1c(NC(=O)c2ccc(C(C)(C)C)cc2)cccc1-c1cn(C)c(=O)c(Nc2ccc(C(=O)N3CCOCC3)cc2)n1" when you have a moment?
active

What was the test verdict on "CC1(C)CCC[C@@]2(C)[C@@H]1CC[C@@]1(C)OC(=O)C[C@H]21" ?
inactive

Status in this test for "COc1ccc2cccc(CCNC(C)=O)c2c1" ?
inactive
